The reported measurements were obtained from PubChem BioAssay (NCI).

- Test system: SR leukemia
- Method notes: NCI-60 one-dose screen, 48 h (100 = growth as untreated, 0 = no growth, -100 = all killed)
- Condition info: 10 µM unless noted
About 83,000 compounds went through this panel and 20% of them were active in at least one assay; those are over-represented in the sample as a whole. Active and inactive are the calls of the source. Rule for the calls: active = growth percent below 10; inactive = the rest.
Property measured: growth

growth recorded for this molecule, "Nc1nc(Cl)c2[nH]cnc2n1" , is 95.6% (inactive)

growth recorded for this molecule, O=C(O)c1ccccc1C(=O)OC1CCCC2CCCC21 (stereo not given) , is 104% (inactive)

growth recorded for this molecule, "N#Cc1c(N)[nH]c(S)c1C#N" , is 97.8% (inactive)

growth recorded for this molecule, CC[C@]1(O)CC2CN(CCc3c([nH]c4ccccc34)[C@@](C(=O)OC)(c3cc4c(cc3OC)N(C)[C@H]3[C@@](O)(C(=O)OC)[C@H](OC(C)=O)[C@]5(CC)C=CCN6CC[C@]43[C@@H]65)C2)C1 (stereo not given in full) , is 10.2% (inactive)

growth recorded for this molecule, "COc1ccccc1[C@H]1c2[nH]c3ccccc3c2C[C@H]2C(=O)N(CCCCCCC(=O)NO)CC(=O)N12" , is 19.3% (inactive)

----------
Give measured growth for each item. Keep answers brief.
- System: SNB-75 CNS
- Method notes: NCI-60 one-dose screen, 48 h (100 = growth as untreated, 0 = no growth, -100 = all killed)
- Condition info: 10 µM unless noted
Compounds without any hit were thinned out: in the full panel of roughly 83,000, 20% have a hit.
Provide the reading as a plain figure in %.

growth recorded for this molecule, "CCN(CC)CCOc1ccc(C2=C(c3ccccc3)CCc3cc(OC)ccc32)cc1" , is 44.2

growth recorded for this molecule, "CCCCN(CCCC)CCCOC(=O)c1ccc(N)cc1" , is 39.1

growth recorded for this molecule, "COc1ccc(-c2noc(N)c2-c2cc(OC)c3c(c2)OCO3)cc1" , is 3.98

growth recorded for this molecule, "O=[N+]([O-])c1ccc(N/N=C\c2ccccc2[N+](=O)[O-])nc1" , is 103

growth recorded for this molecule, "O=C(Oc1ccc[nH]c1=O)c1cccc(Cl)c1" , is 53.2

growth recorded for this molecule, "CCN(CC)CCCCNc1c2ccccc2[n+](C)c2c1[nH]c1ccccc12" , is -49.8

growth recorded for this molecule, Nc1ccc(C2=NN(c3ccccc3)C(c3ccc(Cl)cc3)C2)cc1 (stereo not given) , is 72.8

growth recorded for this molecule, "O[C@@H]1Cc2ccc3ccccc3c2N[C@H](c2ccoc2)C1" , is 95.5

growth recorded for this molecule, Oc1ccc(Cc2ccc(O)c(C3CC(c4ccc(Cl)cc4)=NN3)c2)cc1C1CC(c2ccc(Cl)cc2)=NN1 (stereo not given) , is 36.1

growth recorded for this molecule, "COc1cc2c(cc1OCCCCCn1c(-c3ccc(OCc4ccccc4)cc3)nc3cc(N4CCOCC4)ccc31)N=C[C@@H]1CCCN1C2=O" , is 12.1

----------
- Test system: NCI-H460 lung
- Method notes: NCI-60 one-dose screen, 48 h (100 = growth as untreated, 0 = no growth, -100 = all killed)
- Condition info: 10 µM unless noted
About 83,000 compounds went through this panel and 20% of them were active in at least one assay; those are over-represented in the sample as a whole.
I would appreciate it if you labelled entries t when growth is 70% or higher, otherwise f.

Determine whether measured growth meets or exceeds 70% for "COc1ccc2c(c1)/C(=C\c1c[nH]c3ccc(F)cc13)C(=O)N2" t

Determine whether measured growth meets or exceeds 70% for CCOC(=O)c1c(NC(=O)C2CCCCC2C(=O)O)sc2c1CCCC2 (centres undefined) t

Determine whether measured growth meets or exceeds 70% for "Cn1cc(-c2csc(-c3cn(C)c4ncccc34)n2)c2cccnc21" t

Determine whether measured growth meets or exceeds 70% for "C[C@]12CC[C@@H]3c4ccc(O)c([N+](=O)[O-])c4CC[C@H]3[C@@H]1CC[C@@H]2NS(=O)(=O)c1ccc(C(F)(F)F)cc1" f

Determine whether measured growth meets or exceeds 70% for "COc1ccc(-c2c3c(nn2-c2ccc(N)cc2)CCc2cnoc2-3)cc1OC" t

Determine whether measured growth meets or exceeds 70% for "Cc1ccc(C(=O)Nc2ccc(Cl)cc2C(=O)NCc2ccccc2)cc1" t

Determine whether measured growth meets or exceeds 70% for "O=C(Nc1ccccc1Cl)c1cnc2ccc(C3CCNCC3)cn12" t

Determine whether measured growth meets or exceeds 70% for "O=[P@@]1(c2ccccc2)O[C@H](COCc2ccccc2)[C@@H](OCc2ccccc2)[C@H](OCc2ccccc2)[C@H]1NCc1ccccc1" f
